Hey, just so you know, these numbers are from PubChem BioAssay (NCI).

Tested on: HL-60(TB) leukemia
Experiment: NCI tumour cell line growth inhibition, 48 h
Here the recorded TGI is given for each entry.
endpoint-label: TGI

molecule: O=C1/C(=N\O)S(=O)(=O)c2ccccc21
test-value: > 100 µM
--
molecule: CCc1ccccc1NC(=O)/C(N=O)=C(/C)O
test-value: > 100 µM
--
molecule: CC1=C(CCC(C)NCc2ccc(OCCCN3CCCCC3)cc2)C(C)(C)CCC1 (stereo not given)
test-value: 4.2 µM
--
molecule: COC(=O)/C=C1/OC(c2ccc(OC)cc2)=C(Cl)C1=O
test-value: 12.2 µM
--
molecule: CN(C)C(=O)c1cnc2oc3ccc(O)cc3c2c1-c1ccccc1
test-value: > 25 µM
--
molecule: C#CCNCCN1C(=O)c2ccc3c4c(ccc(c24)C1=O)C(=O)N(CCNCC#C)C3=O
test-value: 25.8 µM
--
molecule: N#CNC(=NCCc1c[nH]c2ccccc12)Oc1ccccc1
test-value: > 100 µM
--
molecule: Cc1ccc(-c2csc(NC(=O)N3CCN(c4cc5c(cc4F)c(=O)c(C(=O)O)cn5C4CC4)CC3)n2)cc1
test-value: 4.51 µM
--
molecule: CCOC(=O)c1nc2ccc(C(F)(F)F)cc2nc1Oc1ccc(C(=O)OC)cc1
test-value: > 100 µM
--
molecule: CCc1ccc2c(c1)C(=O)c1c-2n(CCCN=[N+]=[N-])c(=O)c2cc(OC)c(OC)cc12
test-value: > 100 µM

----------
System: SW-620 colon
Assay: NCI tumour cell line growth inhibition, 48 h; in the data active means GI50 below about 0.43 µM; inactive means the rest
Outcomes: yes (1) = active, no (0) = inactive

input-smiles: Cn1cccc1-c1cc(-c2ccc(Br)cc2)[nH]c(=O)c1C#N
discrete-label: no (0)
--
input-smiles: COc1cccc(-c2cc3c4c(nc5ccccc53)C(=O)c3cccnc3-c4n2)c1
discrete-label: no (0)
--
input-smiles: CCOC(=O)c1cc2c(n1Cc1cc(OC)c(OC)c(OC)c1)-c1oncc1CCC2
discrete-label: yes (1)

----------
Here the recorded TGI is given for each entry.
Test system: SNB-19 CNS
Assay: NCI tumour cell line growth inhibition, 48 h
Where a SMILES comes first, the peptide text is derived from it. The star is where a group is joined. Boc = CC(C)(C)OC(=O)*

compound: CCCCCCCCC/C=C1\CCC(CN(C)C)C1=O (stereo not given)
target-desc: SNB-19 CNS
TGI: 18.1 µM
--
compound: COc1ccc(C(=O)/C=C/c2cccc(Nc3ccnc4cc(Cl)ccc34)c2)cc1
target-desc: SNB-19 CNS
TGI: > 100 µM
--
compound: CCCN(CCC)C(=O)C(=O)c1c(N)[nH]n(-c2ccccc2)c1=O
target-desc: SNB-19 CNS
TGI: > 100 µM
--
compound: CCOc1cc2c(c(OCC)c1O)CC[C@@H]1[C@@H]2CC[C@]2(C)[C@@H](O)CC[C@@H]12
target-desc: SNB-19 CNS
TGI: > 100 µM
--
compound: CC(=O)[CH-]C(=O)c1ccccc1.CC(=O)[CH-]C(=O)c1ccccc1.CC(=O)[CH-]C(=O)c1ccccc1.[In+3]
target-desc: SNB-19 CNS
TGI: > 100 µM
--
compound: N#Cc1c(-c2ccccc2)c(CN2CCCCC2)c(=O)n2c1[nH]c1ccccc12
target-desc: SNB-19 CNS
TGI: > 100 µM
--
compound: CC(C)(c1ccccc1)c1ccc(Oc2ccc(C#N)c(C#N)c2)cc1
target-desc: SNB-19 CNS
TGI: > 100 µM
--
compound: Cc1nn(-c2ccc([N+](=O)[O-])cc2)c2ncnc(N/N=C/c3ccccc3O)c12
target-desc: SNB-19 CNS
TGI: 8.65 µM
--
compound: O=S(=O)(c1cccc2c(I)cccc12)N1CCCNCC1
target-desc: SNB-19 CNS
TGI: 42.8 µM
--
compound: COC(=O)[C@H](Cc1ccc(O)cc1)NC(=O)[C@H](Cc1ccc(O)cc1)NC(=O)OC(C)(C)C (Boc-Tyr-Tyr-OMe)
target-desc: SNB-19 CNS
TGI: > 100 µM
--
compound: O=C(c1cc2c(c3ccccc13)NC1(CCCCC1)N=C2C(F)(F)F)C(F)(F)F
target-desc: SNB-19 CNS
TGI: 18.7 µM
--
compound: Cn1c(N)nc(-c2ccc(Cl)cc2)c1SSc1c(-c2ccc(Cl)cc2)nc(N)n1C
target-desc: SNB-19 CNS
TGI: 27.8 µM
--
compound: O=C(N/N=C/c1cc(Br)cc(Br)c1[O-])c1ccccc1O.O=C(N/N=C/c1cc(Br)cc(Br)c1[O-])c1ccccc1O.[Co+2]
target-desc: SNB-19 CNS
TGI: 28.4 µM
--
compound: Cc1ccc(Nc2nc3c(=O)n(C)c(=O)n(C)c3nc2Nc2ccc(C)cc2)cc1
target-desc: SNB-19 CNS
TGI: > 100 µM
--
compound: CCOC(=O)C(Cl)(NC(=O)OCc1ccccc1)C(F)(F)F (stereo not given)
target-desc: SNB-19 CNS
TGI: > 100 µM
--
compound: COC(=O)C1=C(C)NC(C)=C(C(=O)OCC(C)C)C1c1ccccc1[N+](=O)[O-] (stereo not given)
target-desc: SNB-19 CNS
TGI: 64.3 µM
--
compound: Cc1ccc(N(C)S(=O)(=O)c2ccccc2[N+](=O)[O-])cc1
target-desc: SNB-19 CNS
TGI: > 100 µM
--
compound: NCCN.O=C([O-])CN1CCOCC1.[OH-].[Pt+4]
target-desc: SNB-19 CNS
TGI: > 100 µM
--
compound: BrCC[N+]12CC[N+](CCBr)(CC1)C2
target-desc: SNB-19 CNS
TGI: > 100 µM
--
compound: O=C(O)C1CCCCN1c1ccccc1[N+](=O)[O-] (stereo not given)
target-desc: SNB-19 CNS
TGI: > 100 µM

----------
System: HL-60(TB) leukemia
Assay: NCI tumour cell line growth inhibition, 48 h; in the data active = GI50 below about 0.43 µM; inactive = the rest
Outcomes: T (active), F (inactive)

compound: COC(=O)C1=C(C)NC(C)=C(C(=O)OCC(C)C)C1c1ccccc1[N+](=O)[O-] (centres undefined)
target-desc: HL-60(TB) leukemia
discrete-label: F

compound: CC(=O)[O][Sn]([CH2]c1ccccc1)([CH2]c1ccccc1)[CH2]c1ccccc1
target-desc: HL-60(TB) leukemia
discrete-label: F

compound: N#Cc1nc2c(S(=O)(=O)c3ccc(Cl)cc3)c(N)n(CCCN3CCOCC3)c2nc1C#N
target-desc: HL-60(TB) leukemia
discrete-label: F

compound: N#CSCc1ccc(Cl)c(CSC#N)c1
target-desc: HL-60(TB) leukemia
discrete-label: T

compound: Nc1ncnc2c1c(-c1ccc(Oc3ccccc3)cc1)nn2C[C@@H]1SSC[C@H]1O
target-desc: HL-60(TB) leukemia
discrete-label: F

compound: Cc1ccc(-c2csc(NC(=O)N3CCN(c4cc5c(cc4F)c(=O)c(C(=O)O)cn5C4CC4)CC3)n2)cc1
target-desc: HL-60(TB) leukemia
discrete-label: F

compound: COC(=O)Nc1nc2ccc(Oc3cccc(NC(=O)Nc4cc(C(F)(F)F)ccc4F)c3)cc2[nH]1
target-desc: HL-60(TB) leukemia
discrete-label: F

compound: CC(C)(C)c1[nH]nc2c1C(c1cc3ccccc3[nH]c1=O)Nc1cc(C(=O)OCc3ccccc3)ccc1N2 (centres undefined)
target-desc: HL-60(TB) leukemia
discrete-label: F

compound: C#CCNCCN1C(=O)c2ccc3c4c(ccc(c24)C1=O)C(=O)N(CCNCC#C)C3=O
target-desc: HL-60(TB) leukemia
discrete-label: F

----------
Here the recorded TGI is given for each entry.
Test system: BT-549 breast
Test: NCI tumour cell line growth inhibition, 48 h
endpoint-label: TGI (µM)

molecule: CC(=O)OC(C)(C)CCC(=O)[C@](C)(O)[C@H]1[C@H](O)C[C@@]2(C)[C@@H]3CCc4c(cc(OC5OC(CO)C(O)C(O)C5O)c(O)c4C)C3(C)C(=O)C[C@]12C (some centres undefined)
target-desc: BT-549 breast
endpoint-label: TGI
inequality-sign: >
test-value: 100
//
molecule: COC(=O)Nc1nc2ccc(Oc3cccc(NC(=O)Nc4cc(C(F)(F)F)ccc4F)c3)cc2[nH]1
target-desc: BT-549 breast
endpoint-label: TGI
inequality-sign: >
test-value: 25
//
molecule: OC1CSc2nc3ccccc3n2C1 (centres undefined)
target-desc: BT-549 breast
endpoint-label: TGI
inequality-sign: >
test-value: 100
//
molecule: Cc1ccc(C(=O)NC2CCC2)cc1-c1ccc(C(=O)NCC2CC2)cc1
target-desc: BT-549 breast
endpoint-label: TGI
inequality-sign: >
test-value: 25
//
molecule: c1ccc2[nH]c(-c3cc(-c4ccc5c(c4)OCO5)n[nH]3)nc2c1
target-desc: BT-549 breast
endpoint-label: TGI
inequality-sign: =
test-value: 13
//
molecule: O=C1C(c2cnc3ccccc3n2)=C(O)c2ccccc21
target-desc: BT-549 breast
endpoint-label: TGI
inequality-sign: >
test-value: 100
//
molecule: COc1cnc2c(c1)C(=O)c1c-2n(CCCNC2=NCCS2)c(=O)c2cc(Cl)ccc12
target-desc: BT-549 breast
endpoint-label: TGI
inequality-sign: =
test-value: 2.56
//
molecule: O=C1c2ccc3c4c(ccc(c24)C(=O)N1CCCNCc1ccccc1Cl)C(=O)N(CCCNCc1ccccc1Cl)C3=O
target-desc: BT-549 breast
endpoint-label: TGI
inequality-sign: =
test-value: 1.8
//
molecule: COc1ccccc1CNCCCN1C(=O)c2ccc3c4c(ccc(c24)C1=O)C(=O)N(CCCN)C3=O
target-desc: BT-549 breast
endpoint-label: TGI
inequality-sign: =
test-value: 2.99
